# testSummary: Chemical hydrolysis in phosphate buffer saline (PBS, pH 7.3)
# Assay type: physicochemical
# details: PBS pH 7.3, 37 °C, read-out: PBS pH 7.3 t 1/2 (converted)
# Protocol: Part 4. Chemical Hydrolysis of TriPPPro-compounds 10 and 20. Second prepare 1.9 mM hydrolysis […] Then, aliquots of 50 µL human
assayMetric: half-life at 1.9 mM (days)

(1) CCCCCCCCCCCCCCCCCCP(=O)(OCc1ccc(OC(=O)CCCC)cc1)OP(=O)(O)OP(=O)(O)OC[C@@H]1C=C[C@H](n2cnc3c(NC4CC4)nc(N)nc32)C1 (some centres unmarked) [10hz, γ‐(AB‐C4)‐γ‐C‐(alkyl‐C18)‐ABCTP]
(2) CCCCCCCCCCCCCCCCCCOP(=O)(OCCCC)OP(=O)(O)OP(=O)(O)OC[C@@H]1C=C[C@H](n2cnc3c(NC4CC4)nc(N)nc32)C1 (some centres unmarked) [10hv, γ‐(C4;C18)‐ABCTP]
[ask] Looking at 1 and 2 , which one comes out lower in half-life at 1.9 mM terms? // respond with label for picked entry
[reply] 2

====

# Test system: HIV‐2 [ROD]
# testSummary: Anti-HIV activity, HIV-2 in wild-type CEM/0 cells
# Assay type: cell-based
# details: Human immunodeficiency virus 2, CCRF-CEM; wild-type CEM/0 cells, mean ±SD n = 2–3; read-out: Antiviral activity CEM/0 HIV‐2 [ROD] EC50
# Experimental: Part 9. Anti-HIV activity assay. The produce was used as previously reported. 5 Inhibition of HIV-1(IIIB)- and HIV-2(ROD)-induced cytopathogenicity in wild-type CEM/0 and thymidine kinase-deficient CEM/TK– cell cultures was measured in […] containing appropriate dilutions of the test compounds. After 4−5 days of incubation at 37 °C in a CO2-controlled humidified atmosphere, CEM giant (syncytium) cell formation was examined microscopically. The […] giant cell formation by 50%. Part 10. […]
assayMetric: EC50 (µM)

1. CCCCCCCCCCCCCCCCCCP(=O)(OCc1ccc(OC(=O)CCCC)cc1)OP(=O)(O)OP(=O)(O)OC[C@H]1O[C@@H](n2cc(C)c(=O)[nH]c2=O)C[C@@H]1F (stereo partly drawn) [10ez]; 0.46

(P) CCCCCCCCCCCCCCCCCCOP(=O)(OCc1ccc(OC(=O)CCCC)cc1)OP(=O)(O)OP(=O)(O)OC[C@H]1O[C@@H](n2ccc(=O)[nH]c2=O)C[C@@H]1F (stereo partly drawn) [10fy]
(Q) CCCCCCCCCCCCCCCCCCOP(=O)(OCc1ccc(OC(=O)CCCC)cc1)OP(=O)(O)OP(=O)(O)OCC1OC(n2cc(C)c(=O)[nH]c2=O)CC1N=[N+]=[N-] (stereo not drawn) [10by, γ‐(AB‐C4;alkyl‐C18)‐AZTTP]
[ask] Identify the entry with the smaller EC50: P or Q . Choose, then provide that item's label.
[reply] Q

====

This listing pairs compounds with measured CC50.
# testSummary: in vitro
# details: human, CEM/0 cells (wild-type CD4+ T-cells)
Field format: number, assumed µM, no unit text.

1. CCCCCCCCCCCCCCCCCCP(=O)(OCCCC)OP(=O)(O)OP(=O)(O)OC[C@H]1O[C@@H](n2ccc(=O)[nH]c2=O)C[C@@H]1F (stereo partly drawn) [10fx]; 67.3

[ask] Which value of CC50 has been reported for CCCCCCCCCCCCCCCCCCOP(=O)(O)OP(=O)(O)OP(=O)(O)OC[C@@H]1O[C@H](n2cc(F)c(N)nc2=O)CS1 [20c, γ‐C18‐FTCTP] in the records?
[reply] 63.4

[ask] // query CC50 value for entry CCCCCCCCCCCCCCCCCCOP(=O)(OCC(CC)CCCC)OP(=O)(O)OP(=O)(O)OC[C@@H]1O[C@H](n2cc(F)c(N)nc2=O)CS1 (stereo partly drawn) [10cw]
[reply] 64

====

The entries below come with measured CC50 values attached.
# testSummary: in vitro
# details: human, CEM/0 cells (wild-type CD4+ T-cells)
# Experimental: All TriPPPro‐compounds 10 and 20, as well as their parent nucleosides and the corresponding NTPs, were evaluated for their antiviral activity (expressed as EC50 values) against HIV‐1 (wild‐type CEM/0 cells) and HIV‐2 (wild‐type CEM/0 cells and thymidine kinase‐deficient (CEM/TK^−) cells) with concomitant determination of cytotoxicity in the same cell line (Table 3 ).
Dear colleague, please return just the value in µM, with no unit written.

[ask] Consider the compound CCCCCCCCCCCCCCCCCCP(=O)(OCc1ccc(OC(=O)CCCC)cc1)OP(=O)(O)OP(=O)(O)OC[C@@H]1C=C[C@H](n2cnc3c(NC4CC4)nc(N)nc32)C1 (stereo partly drawn) [10hz, γ‐(AB‐C4)‐γ‐C‐(alkyl‐C18)‐ABCTP] and give its measured CC50.
[reply] 38.2

[ask] # query: CC50 of entry CCCCCCCCCCCCCCCCCCP(=O)(OCc1ccc(OC(=O)CCCC)cc1)OP(=O)(O)OP(=O)(O)OC[C@@H]1O[C@H](n2cc(F)c(N)nc2=O)CS1 (stereo partly drawn) [10cz]
[reply] 66

[ask] Can you look up the measured CC50 of CCCCCCCCCCCCCCCCCCOP(=O)(OCc1ccc(OC(=O)CCCC)cc1)OP(=O)(O)OP(=O)(O)OC[C@H]1O[C@@H](n2cc(Cl)c(=O)[nH]c2=O)C[C@@H]1F (stereo partly drawn) [10dy] for me?
[reply] 52.1

[ask] Entry CCCCCCCCCCCCCCCCCCOP(=O)(OCC(CC)CCCC)OP(=O)(O)OP(=O)(O)OC[C@H]1O[C@@H](n2cc(/C=C/Br)c(=O)[nH]c2=O)C[C@@H]1O (stereo partly drawn) [10gw] has what CC50?
[reply] 60.3

[ask] Item under review: CCCCCCCCCCCCCCCCCCP(=O)(OCc1ccc(OC(=O)CCCC)cc1)OP(=O)(O)OP(=O)(O)OC[C@H]1O[C@@H](n2cc(Cl)c(=O)[nH]c2=O)C[C@@H]1F (stereo partly drawn) [10dz] . Reported CC50?
[reply] 54.9

[ask] # query: CC50 of entry CCCCCCCCCCCCCCCCCCP(=O)(OCCCC)OP(=O)(O)OP(=O)(O)OC[C@@H]1O[C@H](n2cc(F)c(N)nc2=O)CS1 (stereo partly drawn) [10cx]
[reply] 46

[ask] What value of CC50 has been recorded for this entry: CCCCCCCCCCCCCCCCCCP(=O)(OCCCC)OP(=O)(O)OP(=O)(O)OC[C@H]1O[C@@H](n2cc(/C=C/Br)c(=O)[nH]c2=O)C[C@@H]1O (stereo partly drawn) [10gx]
[reply] 51.5

[ask] Which value of CC50 has been reported for CCCCCCCCCCCCCCCCCCP(=O)(OCCCC)OP(=O)(O)OP(=O)(O)OC[C@@H]1C=C[C@H](n2cnc3c(NC4CC4)nc(N)nc32)C1 (stereo partly drawn) [10hx] in the records?
[reply] 38.6

[ask] For CCCCCCCCCCCCCCCCCCP(=O)(OCc1ccc(OC(=O)CCCC)cc1)OP(=O)(O)OP(=O)(O)OC[C@H]1O[C@@H](n2cc(C)c(=O)[nH]c2=O)C[C@@H]1N=[N+]=[N-] (stereo partly drawn) [10bz, γ‐(AB‐C4)‐γ‐C‐(alkyl‐C18)‐AZTTP] , what is its reported CC50?
[reply] 58.9

====

# testSummary: in vitro
# details: human, CEM/0 cells (wild-type CD4+ T-cells)
assayMetric: CC50 (µM)
Unit µM implied. Number only.

1) CCCCCCCCCCCCCCCCCCOP(=O)(OCC(CC)CCCC)OP(=O)(O)OP(=O)(O)OC[C@H]1O[C@@H](n2cc(Cl)c(=O)[nH]c2=O)C[C@@H]1F (stereo partly drawn) [10dw]; 56.1
2) CCCCCCCCCCCCCCCCCCOP(=O)(OCCCC)OP(=O)(O)OP(=O)(O)OC[C@H]1O[C@@H](n2cc(C)c(=O)[nH]c2=O)C[C@@H]1N=[N+]=[N-] (stereo partly drawn) [10bv, γ‐(alkyl‐C4;alkyl‐C18)‐AZTTP]; 64.9
3) CCCCCCCCCCCCCCCCCCOP(=O)(OCc1ccc(OC(=O)CCCC)cc1)OP(=O)(O)OP(=O)(O)OC[C@H]1O[C@@H](n2cc(C)c(=O)[nH]c2=O)C[C@@H]1F (stereo partly drawn) [10ey]; 54.1

Next compound, please.
[ask] Please report the recorded CC50 for CCCCCCCCCCCCCCCCCCOP(=O)(OCC(CC)CCCC)OP(=O)(O)OP(=O)(O)OC[C@H]1O[C@@H](n2cc(C)c(=O)[nH]c2=O)C[C@@H]1N=[N+]=[N-] (stereo partly drawn) [10bw] .
[reply] 45.6

====

Each item that follows carries a reported EC50.
# Tested on: HIV‐2 [ROD)]
# testSummary: Anti-HIV activity, HIV-2 in thymidine kinase-deficient CEM/TK^− cells
# Assay type: cell-based
# details: Human immunodeficiency virus 2, CEM-TK(-), read-out: Antiviral activity CEM/TK^− HIV‐2 [ROD)] EC50
Kindly answer with a numeric value in nM, unit omitted.

Worked set:
1) CCCCCCCCCCCCCCCCCCP(=O)(OCCCC)OP(=O)(O)OP(=O)(O)OC[C@H]1O[C@@H](n2cc(C)c(=O)[nH]c2=O)C[C@@H]1F (some centres unmarked) [10ex]; 1010
2) CCCCCCCCCCCCCCCCCCP(=O)(OCCCC)OP(=O)(O)OP(=O)(O)OC[C@H]1O[C@@H](n2ccc(=O)[nH]c2=O)C[C@@H]1F (some centres unmarked) [10fx]; 150
3) Cc1cn([C@H]2C[C@H](N=[N+]=[N-])[C@@H](CO[P@](=O)(O)O[P@](=O)(O)OP(=O)(O)O)O2)c(=O)[nH]c1=O [AZTTP, reference compound]; 57900
4) CCCCCCCCCCCCCCCCCCP(=O)(OCCCC)OP(=O)(O)OP(=O)(O)OC[C@H]1O[C@@H](n2cc(/C=C/Br)c(=O)[nH]c2=O)C[C@@H]1O (some centres unmarked) [10gx]; 24000
5) CCCCCCCCCCCCCCCCCCP(=O)(OCCCC)OP(=O)(O)OP(=O)(O)OC[C@H]1O[C@@H](n2cc(C)c(=O)[nH]c2=O)C[C@@H]1N=[N+]=[N-] (some centres unmarked) [10bx]; 1190
6) CCCCCCCCCCCCCCCCCCP(=O)(OCCCC)OP(=O)(O)OP(=O)(O)OC[C@H]1O[C@@H](n2cc(Cl)c(=O)[nH]c2=O)C[C@@H]1F (some centres unmarked) [10dx]; 3210
7) CCCCCCCCCCCCCCCCCCP(=O)(OCCCC)OP(=O)(O)OP(=O)(O)OC[C@@H]1C=C[C@H](n2cnc3c(NC4CC4)nc(N)nc32)C1 (some centres unmarked) [10hx]; 5.8

--- query ---
[ask] Item CCCCCCCCCCCCCCCCCCP(=O)(OCCCC)OP(=O)(O)OP(=O)(O)OC[C@@H]1O[C@H](n2cc(F)c(N)nc2=O)CS1 (some centres unmarked) [10cx] has what recorded EC50?
[reply] 11
